test: Inhibitory activity against sweet almond Beta-glucosidase
pKi: −log10 of the molar value.
Metric: pKi

INSERT INTO results (molecule, metric, numeric_value) VALUES
  ('OC[C@H]1OC[C@@H](O)[C@@H]1O', 'pKi', 1.44),
  ('O[C@H]1[C@H](O)COC[C@@H]1O [(3S,4R,5R)-Tetrahydro-pyran-3,4,5-triol]', 'pKi', 1.41);

I: OC[C@H]1OC[C@H](O)[C@@H](O)[C@@H]1O
II: OC[C@H]1OC[C@@H](O)[C@H]1O
Task: Between the two listed entries I and II , which has its pKi at the higher number? Select an item and report its label.
Result: II
(II: 1.83, I: 1.22)

###

assay: Inhibitory activity against sweet almond Beta-glucosidase
Metric: pKi
Scale: pKi equals -log10([C]), with [C] in mol/L.

Task: Item under review: NCCc1cn(C(=O)c2ccccc2)cn1 . Reported pKi?
Result: 6.96
